B1: ZNF511 (parent)
chain: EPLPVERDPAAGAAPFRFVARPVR

Variants of: B1
procedure_text: protein stability index of a GFP-peptide fusion (GPS, HEK-293T) (PSI 1-6); higher = more stable;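 further: lentivirally expressed fusions sorted by FACS into six bins by GFP to DsRed ratio, PSI derived from sequencing read proportions per bin multiplied by bin number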
measurement_setup: c terminus: a fixed tail appended
measurement_kind: protein stability index

residues=EPLPVERDPAAGAAPFRFVAKPVR reported_measurement=2.71
residues=EPLPVERDPAAGAAPFRFVARPVE reported_measurement=2.15
residues=TPLPVERDPAAGAAPFRFVARPVR reported_measurement=2.44
residues=EPLPVERAPAAGAAPFRFVARPVR reported_measurement=2.26
residues=EPLPVERDPDAGAAPFRFVARPVR reported_measurement=2.46
residues=EPLPVERHPAAGAAPFRFVARPVR reported_measurement=2.25
residues=EPLPVERDPAAYAAPFRFVARPVR reported_measurement=1.96
residues=EPLPVERDPNAGAAPFRFVARPVR reported_measurement=3.07
residues=EPLPVERDLAAGAAPFRFVARPVR reported_measurement=2.42
residues=EPLPVERDPAAGAAPFRFFARPVR reported_measurement=3.88
residues=EPLPVERDPAAGAAPFRFVIRPVR reported_measurement=3.21
residues=EPLPEERDPAAGAAPFRFVARPVR reported_measurement=2.17
residues=EPLPVERDPAAGCAPFRFVARPVR reported_measurement=2
residues=EPLPVERDPAAGAAPFRFVARWVR reported_measurement=2.66
residues=EPKPVERDPAAGAAPFRFVARPVR reported_measurement=2.4
residues=EPLPVERDPAAGAAPFRFVARPMR reported_measurement=2.4
residues=EPLPVERDPAAGHAPFRFVARPVR reported_measurement=2.43
residues=EPLPVERDPAAGAACFRFVARPVR reported_measurement=3.77
residues=EPLPVERDPAAGAAPNRFVARPVR reported_measurement=4.86
residues=EPLYVERDPAAGAAPFRFVARPVR reported_measurement=1.64
residues=EPLPVERDPAAQAAPFRFVARPVR reported_measurement=2.55
residues=EPLPVERDQAAGAAPFRFVARPVR reported_measurement=1.98
residues=EPLPVERDPAAGAAPFRFVAHPVR reported_measurement=2.18
residues=EPLPVERDPAAGAAPFRFLARPVR reported_measurement=3.97
residues=EPLPVERDPAAGAAPFRFVARNVR reported_measurement=2.31
residues=ERLPVERDPAAGAAPFRFVARPVR reported_measurement=2.36
residues=EPLPVERDPAAWAAPFRFVARPVR reported_measurement=1.67
residues=EPLPVERDPAAGAAPFRRVARPVR reported_measurement=4.91
residues=EPLPVERDPEAGAAPFRFVARPVR reported_measurement=2.99
residues=EPLPVERDPAAGAAPRRFVARPVR reported_measurement=5.16
residues=EPLPVERDPAAGAAPFRFVASPVR reported_measurement=2.14
residues=EPLPVERDIAAGAAPFRFVARPVR reported_measurement=2.34
residues=EPLPVERDPAAGAAPFGFVARPVR reported_measurement=4.86
residues=EPLPVFRDPAAGAAPFRFVARPVR reported_measurement=3.14
residues=EPNPVERDPAAGAAPFRFVARPVR reported_measurement=2.76
